TEST SYSTEM: sucrase/isomaltase (SI) (Sus scrofa, UniProt P56729)
Sequence (P56729 with tags, fused parts or gaps): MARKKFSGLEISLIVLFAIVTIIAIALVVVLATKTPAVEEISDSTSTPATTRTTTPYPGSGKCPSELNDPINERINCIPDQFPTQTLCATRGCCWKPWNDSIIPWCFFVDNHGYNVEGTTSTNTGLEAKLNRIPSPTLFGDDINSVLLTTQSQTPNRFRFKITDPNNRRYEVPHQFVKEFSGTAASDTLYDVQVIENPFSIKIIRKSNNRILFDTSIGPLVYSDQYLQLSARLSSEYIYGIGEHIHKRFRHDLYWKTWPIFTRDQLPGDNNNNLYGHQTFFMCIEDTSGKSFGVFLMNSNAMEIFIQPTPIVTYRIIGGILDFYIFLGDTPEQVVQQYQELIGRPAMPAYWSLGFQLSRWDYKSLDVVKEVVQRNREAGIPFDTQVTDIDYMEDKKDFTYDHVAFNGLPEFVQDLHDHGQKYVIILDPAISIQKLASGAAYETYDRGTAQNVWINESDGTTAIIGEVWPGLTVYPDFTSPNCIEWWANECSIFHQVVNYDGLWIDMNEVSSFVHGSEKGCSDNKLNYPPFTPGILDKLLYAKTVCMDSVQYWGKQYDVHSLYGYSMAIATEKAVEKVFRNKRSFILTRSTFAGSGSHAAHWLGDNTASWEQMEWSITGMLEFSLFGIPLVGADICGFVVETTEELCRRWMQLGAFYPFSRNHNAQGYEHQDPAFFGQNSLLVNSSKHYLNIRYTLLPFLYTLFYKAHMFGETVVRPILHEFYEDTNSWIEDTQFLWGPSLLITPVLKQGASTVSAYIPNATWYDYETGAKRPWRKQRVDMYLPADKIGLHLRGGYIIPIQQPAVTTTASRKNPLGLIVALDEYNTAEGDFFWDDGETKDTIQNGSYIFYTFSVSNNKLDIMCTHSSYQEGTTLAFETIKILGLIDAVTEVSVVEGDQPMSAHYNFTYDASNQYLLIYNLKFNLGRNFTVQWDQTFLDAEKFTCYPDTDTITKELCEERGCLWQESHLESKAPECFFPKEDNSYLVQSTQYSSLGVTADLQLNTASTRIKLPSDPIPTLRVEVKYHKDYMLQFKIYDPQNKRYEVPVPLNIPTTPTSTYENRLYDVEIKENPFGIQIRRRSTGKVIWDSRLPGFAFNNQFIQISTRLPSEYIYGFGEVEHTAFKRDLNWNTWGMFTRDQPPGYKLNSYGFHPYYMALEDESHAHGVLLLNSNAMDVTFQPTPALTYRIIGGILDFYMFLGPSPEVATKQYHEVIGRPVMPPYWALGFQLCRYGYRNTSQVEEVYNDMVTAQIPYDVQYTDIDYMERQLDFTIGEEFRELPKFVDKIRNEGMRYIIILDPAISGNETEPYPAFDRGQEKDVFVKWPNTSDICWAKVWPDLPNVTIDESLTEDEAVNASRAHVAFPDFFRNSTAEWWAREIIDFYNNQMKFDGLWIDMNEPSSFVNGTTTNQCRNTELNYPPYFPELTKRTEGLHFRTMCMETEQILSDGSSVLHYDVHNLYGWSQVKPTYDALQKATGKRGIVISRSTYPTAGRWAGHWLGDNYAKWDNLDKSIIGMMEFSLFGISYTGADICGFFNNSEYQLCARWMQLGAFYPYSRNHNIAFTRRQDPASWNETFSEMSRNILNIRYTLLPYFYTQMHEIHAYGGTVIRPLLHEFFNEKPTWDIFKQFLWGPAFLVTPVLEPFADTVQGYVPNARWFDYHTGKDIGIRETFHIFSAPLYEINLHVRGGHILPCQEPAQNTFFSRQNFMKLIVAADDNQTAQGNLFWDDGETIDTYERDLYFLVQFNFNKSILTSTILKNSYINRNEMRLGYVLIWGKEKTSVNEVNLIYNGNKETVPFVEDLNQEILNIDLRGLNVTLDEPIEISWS
ASSAY PROTOCOL: Inhibition of SI-catalyzed hydrolysis of maltose (SI/maltose), coupled HK/G6PDH optical test
Type: biochemical, hog
EXPERIMENTAL PARAMETERS: SI/maltose, without preincubation, Dixon evaluation; read-out: Ki
ASSAY METRIC: Ki (µM)
Field format: number, assumed µM, no unit text.

GET /values?readout=Ki&item= N[C@H]1[C@H](O)[C@@H](CO)O[C@@]1(CO)O[C@H]1O[C@H](CO)[C@@H](O)[C@H](O)[C@H]1O
5.4

* * *

TEST SYSTEM: sucrase/isomaltase (SI) (Sus scrofa, UniProt P56729)
ASSAY PROTOCOL: Inhibition of SI-catalyzed hydrolysis of sucrose (SI/sucrose), coupled HK/G6PDH optical test
Format: biochemical, hog
EXPERIMENTAL PARAMETERS: SI/sucrose, without preincubation, Henderson evaluation; read-out: Ki
ASSAY METRIC: Ki (µM)
Unit µM implied. Number only.

Looking for the measured Ki of N[C@H]1[C@H](O)[C@@H](CO)O[C@@]1(CO)O[C@H]1O[C@H](CO)[C@@H](O)[C@H](O)[C@H]1O , can you help?
5

* * *

TEST SYSTEM: glucoamylase/maltase (GM)
ASSAY PROTOCOL: Inhibition of GM-catalyzed hydrolysis of maltose (GM/maltose), coupled HK/G6PDH optical test
Format: biochemical, hog
EXPERIMENTAL PARAMETERS: GM/maltose; secondary Lineweaver-Burk plots; read-out: Ki
Entries annotated with measured Ki
Kindly provide the numeric value in mM only, without the unit symbol.

>  <COMPOUND>
O=C(O)C1OC(OCC2OC(O)(CO)C(O)C2O)C(O)C(O)C1O (centres unmarked)

>  <Ki (mM)>
20

$$$$

Please turn your attention to the following entry.
Which Ki value is on record for N[C@H]1[C@H](O)[C@@H](CO)O[C@@]1(CO)O[C@H]1O[C@H](CO)[C@@H](O)[C@H](O)[C@H]1O ?
1

* * *

TEST SYSTEM: sucrase/isomaltase (SI) (Sus scrofa)
ASSAY PROTOCOL: Inhibition of SI-catalyzed hydrolysis of maltose (SI/maltose), coupled HK/G6PDH optical test
Format: biochemical, hog
EXPERIMENTAL PARAMETERS: SI/maltose, with preincubation, Henderson evaluation; read-out: Ki
ASSAY METRIC: Ki (µM)
Express the result in µM but write the number alone.

Name the reported Ki value associated with the compound N[C@H]1[C@H](O)[C@@H](CO)O[C@@]1(CO)O[C@H]1O[C@H](CO)[C@@H](O)[C@H](O)[C@H]1O
4.6

* * *

TEST SYSTEM: sucrase/isomaltase (SI) (Sus scrofa, UniProt P56729)
ASSAY PROTOCOL: Inhibition of SI-catalyzed hydrolysis of sucrose (SI/sucrose), coupled HK/G6PDH optical test
Assay type: biochemical, hog
EXPERIMENTAL PARAMETERS: SI/sucrose; secondary Lineweaver-Burk plots; read-out: Kii
ASSAY METRIC: Ki (mM)
// units = mM; emit number, no label

Would you mind telling me what Ki value was observed for O=C(O)C1OC(OCC2OC(O)(CO)C(O)C2O)C(O)C(O)C1O (stereo not shown) ?
8

* * *

TEST SYSTEM: sucrase/isomaltase (SI) (Sus scrofa, UniProt P56729)
ASSAY PROTOCOL: Inhibition of SI-catalyzed hydrolysis of maltose (SI/maltose), coupled HK/G6PDH optical test
Type: biochemical, hog
EXPERIMENTAL PARAMETERS: SI/maltose; secondary Lineweaver-Burk plots; read-out: Ki
Description: A) The activity of the SI enzyme complex was studied using three different substrates, that is to say sucrose, maltose and isomaltose. The maltase activity was studied using the substrate maltose. […] B) In the methods described hereinafter for determining the enzyme activity of sucrase/isomaltase and glucoamylase/maltase under the influence of the substances tested, the amount of glucose or fructose released was determined as measured parameter. […]
ASSAY METRIC: Ki (mM)
Your answer is read as mM, so omit the unit and give the number.

Entry O=C(O)C1OC(OCC2OC(O)(CO)C(O)C2O)C(O)C(O)C1O (stereo not shown) [Pal-C6′S, palatinose-C6′-acid] has what Ki?
16
